Target: Gal(b1-3)GlcNAc(b1-2)Man
Test: glycan array binding signal (z-score within array); higher = stronger binding
Settings: glycan notation: IUPAC condensed, linker removed
This is one part of a sample in which the strongest signals are shown more often than they occur.
// values below are reported glycan array binding signal (z-score)

Here is how some binders turned out for glycan array binding signal (z-score).
SBD-G4S3-Fc (protein) MASIPSSASVQLDSYNYDGSTFSGKIYVKNIAYSKKVTVVYADGSDNWNNNGNIIAASFSGPISGSNYEYWTFSASVKGIKEFYIKYEVSGKTYYDNNNSANYQVSTGGGGSGGGGSGGGGSEFVPRDCGCKPCICTVPEVSSVFIFPPKPKDVLTITLTPKVTCVVVDISKDDPEVQFSWFVDDVEVHTAQTQPREEQFNSTFRSVSELPIMHQDWLNGKEFKCRVNSAAFPAPIEKTISKTKGRPKAPQVYTIPPPKEQMAKDKVSLTCMITDFFPEDITVEWQWNGQPAENYKNTQPIMDTDGSYFVYSKLNVQKSNWEAGNTFTCSVLHEGLHNHHTEKSLSHSPGAA
-0.388
Gal-9-hFc (Mus musculus), O08573-2 (protein) MALFSAQSPYINPIIPFTGPIQGGLQEGLQVTLQGTTKSFAQRFVVNFQNSFNGNDIAFHFNPRFEEGGYVVCNTKQNGQWGPEERKMQMPFQKGMPFELCFLVQRSEFKVMVNKKFFVQYQHRVPYHLVDTIAVSGCLKLSFITFQTQNFRPAHQAPMAQTTIHMVHSTPGQMFSTPGIPPVVYPTPAYTIPFYTPIPNGLYPSKSIMISGNVLPDATRFHINLRCGGDIAFHLNPRFNENAVVRNTQINNSWGQEERSLLGRMPFSRGQSFSVWIICEGHCFKVAVNGQHMCEYYHRLKNLQDINTLEVAGDIQLTHVQT
-0.243
GSL-I-B4 (Griffonia simplicifolia) (protein) NFWSDVEDSIIFQGDANTTAGTLQLCKTNQYGTPLQWSAGRALYSDPVQLWDNKTESVASFYTEFTFFLKITGNGPADGLAFFLAPPDSDVKDAGEYLGLFNKSTATQPSKNQVVAVEFDTWTNPNFPEPSYRHIGINVNSIVSVATKRWEDSDIFSGKIATARISYDGSAEILTVVLSYPDGSDYILSHSVDMRQNLPESVRVGISASTGNNQFLTVYILSWRFSSNLQSTSVKAAMEPEITRTVV
-0.171

Now look at this entry.
Qu. Value lookup for glycan array binding signal (z-score); key = CpGal16 (Clavelina picta) (protein) MAKMITNYVGKRIECIMVATDMMSTVFSLASATGDLPFYINFRQRENSIVMNTRVHGKWQYEKSQSSGGMNFYEPFRLVVEVRPSVFKVTVSTMGEEDGITFNLQYSQITIKPDEIVAMHLGYCNLRSELLVTDL
Ans. 0.015

Taken from the supplement of paper PMC8728848.
